target: human P2X3 receptor (Homo sapiens (Human), UniProt P56373); experiment: Evaluation of human P2X3 receptor inhibitory activity (Fluo-3 calcium fluorescence, FDSS 3000, ATP stimulation); format: cell-based; conditions: C6BU-1 cells stably expressing human P2X3 receptor, Fluo-3 fluorescence, FDSS 3000
Sequence (P56373 whole entry): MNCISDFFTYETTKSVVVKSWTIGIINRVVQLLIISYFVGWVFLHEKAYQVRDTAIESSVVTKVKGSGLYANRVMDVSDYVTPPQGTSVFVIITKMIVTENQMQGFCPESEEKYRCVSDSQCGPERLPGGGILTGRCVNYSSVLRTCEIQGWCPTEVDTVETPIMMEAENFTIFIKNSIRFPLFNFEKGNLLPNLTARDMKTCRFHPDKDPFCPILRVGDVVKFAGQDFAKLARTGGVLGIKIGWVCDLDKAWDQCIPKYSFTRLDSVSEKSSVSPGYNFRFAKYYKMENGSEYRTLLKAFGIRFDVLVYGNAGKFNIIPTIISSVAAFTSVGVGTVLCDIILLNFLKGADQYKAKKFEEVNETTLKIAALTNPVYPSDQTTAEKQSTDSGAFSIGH
reported endpoint: log10 of IC50 (log10 of the value in nM)
Recall that a logarithmic scale is used here: each number is log10 of IC50 in nM.

Which value of log10 of IC50 has been reported for CCc1oc2ccc(/N=c3\[nH]c(=O)n(CCCNC(=O)C(F)(F)F)c(=O)n3Cc3ccc(Cl)cc3)cc2c1C [Compound I-1567] in the records?
1.08

Repeat for the following molecule: Cc1nc2ccc(/N=c3\[nH]c(=O)n(C[C@H](O)CO)c(=O)n3Cc3ccc(Cl)cc3)cc2s1 [Compound I-1618]
0.90

Repeat for the following molecule: C[C@@H](C(=O)O)[C@H](C)n1c(=O)[nH]/c(=N\c2ccc3c(c2)nc(-c2ccccc2)n3C)n(Cc2ccc(Cl)cc2)c1=O [Compound I-1812]
2.80

Repeat for the following molecule: COC(=O)[C@@H](C)Cn1c(=O)[nH]/c(=N\c2ccc(N3CCCCC3)cc2)n(Cc2ccc(Cl)cc2)c1=O [Compound I-0954]
1.36

Repeat for the following molecule: Cc1cc(Oc2ccc(/N=c3\[nH]c(=O)n(CC(=O)O)c(=O)n3Cc3ccc(Cl)cc3)cc2)ccn1 [Compound I-1800]
2.71

Repeat for the following molecule: COC(=O)[C@@H](C)Cn1c(=O)[nH]/c(=N\c2ccc(OC(C)C)c(C)c2)n(Cc2ccc(C(C)C)cc2)c1=O [Compound I-0997]
2.83

---

What solubility at 16 h was measured for each of the following?
assay: Solubility test (1% DMSO, artificial intestinal juice pH 6.8); type: physicochemical; settings: artificial intestinal juice pH 6.8 with 1% DMSO, 25 °C, fassgf or other biorelevant, kinetic from dmso stock, artificial intestinal juice pH 6.8, 25 degrees Celsius

Which value of solubility at 16 h has been reported for `O=c1[nH]/c(=N\c2ccc(Oc3ccon3)cc2)n(Cc2ccc(Cl)cc2)c(=O)n1CC(CO)CO` in the records?
> 50 µM

Repeat for the following compound: `CCn1c(=O)[nH]/c(=N\c2ccc(Oc3ccnc(C(=O)O)c3)cc2)n(Cc2ccc(Cl)cc2)c1=O`
> 50 µM

Repeat for the following compound: `C[C@@H](Cn1c(=O)[nH]/c(=N\c2ccc(OCC3CC3)cc2)n(Cc2ccc(Cl)cc2)c1=O)C(=O)O`
> 50 µM

---

biological target: human P2X3 receptor (Homo sapiens (Human), UniProt P56373); experiment: Evaluation of human P2X3 receptor inhibitory activity (Fluo-3 calcium fluorescence, FDSS 3000, ATP stimulation); type: cell-based; settings: human P2X3 receptor, Test Example 1;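 further: stimulus was 50 nM ATP with fluorescence followed for 3 min, and the response per well was peak post-ATP fluorescence divided by the reading at measurement start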
Note to self: class = bucket of IC50, per band 1 (below 8 nM), band 2 (8 nM to below 20 nM), band 3 (20 nM or more)

Could you tell me which band Cn1c(=O)[nH]/c(=N\c2ccc(Oc3ccc(C(=O)O)cn3)cc2)n(Cc2ccc(Cl)cc2)c1=O [Compound I-2442] belongs to?
band 2

Repeat for the following molecule: Cc1ccc(Cn2c(=O)n(C[C@H](C)C(=O)O)c(=O)[nH]/c2=N\c2ccc(CC3CC3)c(Cl)c2)cc1 [Compound I-1513]
band 2

Repeat for the following molecule: CNCCCn1c(=O)[nH]/c(=N\c2ccc(OC(C)C)c(F)c2)n(Cc2ccc(Cl)cc2)c1=O [Compound I-2316]
band 3

Repeat for the following molecule: Cn1c(=O)[nH]/c(=N\c2ccc(Oc3cncc(C(N)=O)n3)cc2)n(Cc2ccc(Cl)cc2)c1=O [Compound I-2471]
band 1

Repeat for the following molecule: CCn1c(=O)[nH]/c(=N\c2ccc(Oc3cccc(C#N)n3)cc2)n(C[C@H]2CC[C@H](C)CC2)c1=O [Compound I-2494]
band 1

Repeat for the following molecule: CNC(=O)CCn1c(=O)[nH]/c(=N\c2ccc3nc(C)sc3c2)n(Cc2ccc(Cl)cc2)c1=O [Compound I-1543]
band 1

Repeat for the following molecule: Cc1ccc(Cn2c(=O)n(CCC(=O)O)c(=O)[nH]/c2=N\c2ccc(Oc3cc(C#N)ccn3)cc2)cc1 [Compound I-2661]
band 2

Repeat for the following molecule: CCn1c(=O)[nH]/c(=N\c2ccc(Oc3cccc(C(=O)OC)n3)cc2)n(Cc2ccc(Cl)cn2)c1=O [Compound I-2238]
band 3

Repeat for the following molecule: Cc1ccc(Cn2c(=O)n(CC3(C(=O)O)COC3)c(=O)[nH]/c2=N\c2ccc(CC(C)C)c(Cl)c2)cc1 [Compound I-1496]
band 2

Repeat for the following molecule: CC[C@@H](Cn1c(=O)[nH]/c(=N\c2ccc(OC(C)C)c(C)c2)n(Cc2ccc(Cl)cc2)c1=O)C(=O)OC [Compound I-0887]
band 3

Repeat for the following molecule: Cc1cc(Oc2ccc(/N=c3\[nH]c(=O)n(C[C@H](O)CO)c(=O)n3Cc3ccc(Cl)cc3)cc2)n(C)n1 [Compound I-2371]
band 3

Repeat for the following molecule: COC(=O)[C@@H](C)Cn1c(=O)[nH]/c(=N\c2ccc(Oc3ccc(OC)nc3)cc2)n(Cc2ccc(C)cc2)c1=O [Compound I-1522]
band 1

Repeat for the following molecule: O=c1[nH]/c(=N\c2ccc(Oc3noc(C4CC4)n3)cc2)n(Cc2ccc(Cl)cc2)c(=O)n1CC(CO)CO [Compound I-2595]
band 3

Data credit: patent US9718790B2
